SUBJECT OF TEST: PRC2 complex (EZH2 Y641F/EED/SUZ12/RbAp48/AEBP2) histone methyltransferase (Homo sapiens, UniProt Q15910, Y641F)
Sequence (Q15910 whole entry Y641F): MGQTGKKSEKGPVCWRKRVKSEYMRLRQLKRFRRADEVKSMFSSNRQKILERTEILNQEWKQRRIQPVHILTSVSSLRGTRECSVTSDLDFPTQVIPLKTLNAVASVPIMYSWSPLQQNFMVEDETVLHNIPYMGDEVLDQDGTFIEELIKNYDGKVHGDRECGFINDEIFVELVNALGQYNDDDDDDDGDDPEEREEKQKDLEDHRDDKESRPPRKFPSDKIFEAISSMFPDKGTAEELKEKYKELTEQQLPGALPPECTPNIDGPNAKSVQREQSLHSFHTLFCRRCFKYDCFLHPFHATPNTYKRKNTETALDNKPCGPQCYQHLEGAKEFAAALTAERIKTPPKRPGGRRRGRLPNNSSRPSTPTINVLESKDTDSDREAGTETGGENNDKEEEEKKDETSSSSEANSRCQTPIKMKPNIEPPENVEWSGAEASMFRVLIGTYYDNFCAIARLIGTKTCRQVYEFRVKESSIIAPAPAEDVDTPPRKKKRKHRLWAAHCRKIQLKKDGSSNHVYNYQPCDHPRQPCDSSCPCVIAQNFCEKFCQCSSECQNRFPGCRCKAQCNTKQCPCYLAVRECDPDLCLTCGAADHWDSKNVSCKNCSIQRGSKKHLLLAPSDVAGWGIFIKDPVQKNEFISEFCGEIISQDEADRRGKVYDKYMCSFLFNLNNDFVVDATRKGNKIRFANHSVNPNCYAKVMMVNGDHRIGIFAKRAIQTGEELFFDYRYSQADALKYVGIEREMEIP
Sequence (O75530 whole entry partner): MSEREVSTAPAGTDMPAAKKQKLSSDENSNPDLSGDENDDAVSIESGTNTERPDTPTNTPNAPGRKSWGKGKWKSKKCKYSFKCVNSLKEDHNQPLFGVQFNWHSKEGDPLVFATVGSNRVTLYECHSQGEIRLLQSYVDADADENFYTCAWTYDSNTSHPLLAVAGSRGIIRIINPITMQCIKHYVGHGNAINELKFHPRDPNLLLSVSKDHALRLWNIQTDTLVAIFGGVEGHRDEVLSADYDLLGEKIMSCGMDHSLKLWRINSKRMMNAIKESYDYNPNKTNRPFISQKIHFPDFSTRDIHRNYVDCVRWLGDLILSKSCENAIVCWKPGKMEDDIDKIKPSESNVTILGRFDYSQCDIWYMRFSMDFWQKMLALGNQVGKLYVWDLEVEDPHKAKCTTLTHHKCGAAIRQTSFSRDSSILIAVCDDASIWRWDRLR
Sequence (Q15022 whole entry partner): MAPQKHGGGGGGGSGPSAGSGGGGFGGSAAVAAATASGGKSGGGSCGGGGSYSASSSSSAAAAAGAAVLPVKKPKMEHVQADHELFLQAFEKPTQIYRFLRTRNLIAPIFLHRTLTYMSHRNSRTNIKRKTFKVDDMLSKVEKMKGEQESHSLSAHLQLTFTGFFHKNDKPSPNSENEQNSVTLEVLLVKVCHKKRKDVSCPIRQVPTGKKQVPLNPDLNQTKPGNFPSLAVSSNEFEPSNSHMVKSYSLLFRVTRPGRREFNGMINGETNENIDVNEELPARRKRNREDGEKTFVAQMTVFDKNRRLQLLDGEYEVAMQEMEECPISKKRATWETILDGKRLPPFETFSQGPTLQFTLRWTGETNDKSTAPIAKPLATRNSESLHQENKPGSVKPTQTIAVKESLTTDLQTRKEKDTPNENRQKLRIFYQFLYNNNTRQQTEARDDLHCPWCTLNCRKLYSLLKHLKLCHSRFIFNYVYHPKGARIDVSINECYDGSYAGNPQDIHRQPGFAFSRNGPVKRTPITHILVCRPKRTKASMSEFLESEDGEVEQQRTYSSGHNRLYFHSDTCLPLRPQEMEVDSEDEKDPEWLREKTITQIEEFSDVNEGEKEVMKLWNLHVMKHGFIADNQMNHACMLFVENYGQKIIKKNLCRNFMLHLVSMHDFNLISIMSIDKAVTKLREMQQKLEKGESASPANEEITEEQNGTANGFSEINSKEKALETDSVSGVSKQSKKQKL
Sequence (Q09028 whole entry partner): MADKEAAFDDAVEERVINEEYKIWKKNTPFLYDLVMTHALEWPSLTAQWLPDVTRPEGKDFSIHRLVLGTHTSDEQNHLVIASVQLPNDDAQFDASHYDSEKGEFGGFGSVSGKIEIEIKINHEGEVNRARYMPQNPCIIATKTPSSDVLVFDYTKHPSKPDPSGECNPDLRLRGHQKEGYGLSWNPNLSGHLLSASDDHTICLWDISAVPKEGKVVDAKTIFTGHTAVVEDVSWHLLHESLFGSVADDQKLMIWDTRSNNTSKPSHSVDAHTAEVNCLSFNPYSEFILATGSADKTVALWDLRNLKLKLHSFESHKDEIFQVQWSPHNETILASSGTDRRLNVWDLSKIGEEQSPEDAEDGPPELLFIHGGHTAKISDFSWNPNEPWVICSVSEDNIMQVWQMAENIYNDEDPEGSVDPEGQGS
Sequence (Q6ZN18 whole entry partner): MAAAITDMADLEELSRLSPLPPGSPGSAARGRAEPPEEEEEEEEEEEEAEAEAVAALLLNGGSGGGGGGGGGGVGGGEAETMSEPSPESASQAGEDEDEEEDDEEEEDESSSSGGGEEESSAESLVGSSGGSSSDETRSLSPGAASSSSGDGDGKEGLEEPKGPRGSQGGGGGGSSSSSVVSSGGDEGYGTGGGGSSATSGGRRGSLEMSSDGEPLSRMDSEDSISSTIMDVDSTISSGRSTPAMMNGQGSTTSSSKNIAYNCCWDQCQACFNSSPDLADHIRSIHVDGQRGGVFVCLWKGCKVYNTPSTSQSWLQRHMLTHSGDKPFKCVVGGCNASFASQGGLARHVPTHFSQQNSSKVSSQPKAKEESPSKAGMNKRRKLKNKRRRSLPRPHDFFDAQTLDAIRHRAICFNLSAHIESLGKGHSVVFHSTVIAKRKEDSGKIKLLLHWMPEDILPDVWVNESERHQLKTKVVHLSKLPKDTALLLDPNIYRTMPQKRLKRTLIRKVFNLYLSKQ
EXPERIMENT: PRC2 complex (EZH2 Y641F) activity assay, HTRF
EXPERIMENTAL SETUP: H3(1-50) K27me1 substrate, SAM, 4 h at room temperature, read-out: IC50 (EZH2_Y641F)
ASSAY ENDPOINT: IC50 (nM)

Below, each entry is followed by its recorded IC50 result.
CC=C(c1c(C)c(C(=O)NCc2c(OC)cc(C)[nH]c2=O)cc2c(-c3ccnc(N(C)C)c3)ccn12)N1CCOCC1 [compound 1] :: 11.4
CNc1cc(-c2ccn3c(C(C)=C4CCN(CC(F)(F)F)CC4)c(C)c(C(=O)NCc4c(OC)cc(C)[nH]c4=O)cc23)ccn1 [compound 5] :: 6.73

[a] COc1cc(C)[nH]c(=O)c1CNC(=O)c1cc2c(-c3ccnc(N(C)C)c3)ccn2c(C(C)=C2CCN(CC(F)(F)F)CC2)c1C [compound 4]
[b] C=C(c1c(C)c(C(=O)NCc2c(OC)cc(C)[nH]c2=O)cc2c(-c3ccc(C)nn3)ccn12)N1CCN(CC(F)(F)F)CC1 [compound 3]
Task: Which value of IC50 is greater, the one for a or the one for b ? Label of pick, please.
Result: a
(a: 8.82 nM, b: 4.91 nM)

These data points were gathered from patent US11661421B2.
